Protocol: qHTS drug screen for cell cycle checkpoint inhibitors in PARPi-resistant BRCA-mutant ovarian cancer cell lines. (AID 1963452)
Reported Conditions: PEO1/OlaR viability, CellTiter-Glo luminescence, 96 h; active compounds read low
For each record, check the reported Z-AUC: if it is below 0.08 write label 1, else write label 0.

compound=Cn1cc(-c2ccc(F)c(C(F)(F)F)c2)nc1C1CCN(c2ncnc3[nH]ncc23)CC1 category_label="label 1"
compound=OC(c1ccc(-c2ccc(CN3CCN(Cc4ccncc4)CC3)cc2)c(F)c1)(C(F)(F)F)C(F)(F)F category_label="label 1"
compound=CN[C@H]1CC[C@@H](c2ccc(Cl)c(Cl)c2)c2ccccc21 category_label="label 1"
compound=Cn1cc(-c2ccc(S(=O)(=O)n3ccc(/C=C/C(=O)Nc4ccccc4N)c3)cc2)cn1 category_label="label 0"
compound=Cn1ncc(Cl)c1-c1cc(C(=O)N[C@H](CN)Cc2cccc(F)c2)sc1Cl category_label="label 0"
compound="CC[C@@H](C)Nc1cc(C(=O)NC2CC3CCC(C2)N3c2ccc(C(=O)C3CC3)cn2)c(C)cc1C(N)=O (stereo partly drawn)" category_label="label 1"
compound=Fc1ccc2[nH]ccc2c1-c1nc(N2CCOCC2)c2sc(CN3CCN(CC4CC4)CC3)cc2n1 category_label="label 1"
compound=COc1cc(S(C)(=O)=O)ccc1Nc1nc2ccc(-c3ccc(NC(=O)[C@H](C)c4ccc(F)cc4)cc3)cn2n1 category_label="label 0"
